The measurements presented in this section are drawn from ChEMBL document CHEMBL3507680.

Assay: Human HepG2 cell viability assay in 384 well format
Type: toxicity, cell-based
Design: dose 125 nL, time 70.5 hour; concentration not given beside the values
Details: HepG2 cells, read-out: Inhibition
parameter: cytotoxicity at 70.5 h

{"compound": "O=C(CN1CCN(c2ccc3nncn3n2)CC1)NC1CCCC1", "data.value": "1.25%"}

Hi, could you look up cytotoxicity at 70.5 h for each item in my list?
1. CCCC(=O)NCCc1cc(NC)nc(-c2ccccn2)n1
2. CC(=O)N(Cc1ncc(C)o1)C1CCN(Cc2ccon2)C1 (stereo unspecified)

Completion:
20.8%
22.2%

Provide the reported cytotoxicity at 70.5 h of each entry below, same order.
1. O=C(NCc1cccs1)[C@@H]1CC[C@@H]2[C@@H](CCN2C2CCOCC2)O1
2. CC(C)n1cc(CN2CCCN(C(=O)CC3CCCCC3)CC2)cn1

Completion:
-14.8%
-0.435%

Hello, I would appreciate it if you could give cytotoxicity at 70.5 h for each entry below.
1. Cc1cnc(N2CCC3(CCCN3C(=O)c3ccco3)CC2)nc1
2. O=C(NCc1cccnc1)C1=NOC2(CCCN(CCO)C2)C1 (stereo unspecified)
3. Cc1[nH]c2ccc(Cl)cc2c1CCNc1ncnc2c1CCNC2
4. CSC(C)C(=O)N(C)CC(=O)Nc1ccc(Br)cn1 (stereo unspecified)
5. Cc1cc(-n2cncn2)ccc1C(=O)N(C)CC(F)(F)C(F)(F)F
6. Cc1cc2c(=O)n3c(nc2s1)CCN(C(=O)c1cn(C)nc1C)CC3
7. O=C(CCn1ccccc1=O)N1CCN(Cc2cccc(Cl)c2)CC1

Completion:
1. -2.74%
2. -10.7%
3. -6.2%
4. -3.72%
5. -5.19%
6. -1.48%
7. -12.6%

###

Please respond with reported cytotoxicity at 70.5 h for every item in the list.
Test: Human HepG2 cell viability assay in 384 well format
Format: toxicity, cell-based
Set-up: dose 125 nL, time 70.5 hour; concentration not given beside the values
Conditions: HepG2 cells, read-out: Inhibition
Numbers only, in %.

Sample records with cytotoxicity at 70.5 h:
{"compound": "Cc1csc(CNC(=O)NCC(C)Cn2nc(C)cc2C)n1 (stereo not given)", "data.value": -5.06}
{"compound": "COCCNCc1cc2ccc(C)c(C)c2[nH]c1=O", "data.value": 4.37}
{"compound": "Cn1ncc2c(N3CCC(F)(F)CC3)nc(-c3ccncc3)nc21", "data.value": -13.7}
{"compound": "CC(=O)N1CCC2(CC1)CC(NS(C)(=O)=O)c1ccccc1O2 (stereo not given)", "data.value": -4.04}

Proceeding to the next compound to report its cytotoxicity at 70.5 h.
Prompt: Please look at this compound and report its cytotoxicity at 70.5 h: "COC(=O)c1sccc1S(=O)(=O)N1CCC(Oc2cnccn2)CC1"
Completion: -7.44

###

Experiment: Human HepG2 cell viability assay in 384 well format
Type: toxicity, cell-based
Design: dose 125 nL, time 70.5 hour; concentration not given beside the values
Settings: HepG2 cells, read-out: Inhibition
parameter: cytotoxicity at 70.5 h (%)
Answers are plain numbers, in %.

Some entries whose results are on file:
{"compound": "COc1cccc(-c2noc(-c3ccc(NCC4CC4)nc3)n2)c1OC", "parameter": "cytotoxicity at 70.5 h", "data.value": -2.04}
{"compound": "CCC/N=c1/c(NC(=O)NCCOC)c(O)oc2ccccc12", "parameter": "cytotoxicity at 70.5 h", "data.value": 25.8}
{"compound": "Cc1ccc(S(=O)(=O)N(CC2CCOC2)C2CC2)cc1N(C)C (centres undefined)", "parameter": "cytotoxicity at 70.5 h", "data.value": 0.338}
{"compound": "CNC(=O)c1cc2c(nc1NCC(C)C)CCN(CC1CC1)CC2", "parameter": "cytotoxicity at 70.5 h", "data.value": -9.46}

// for each compound below, give its cytotoxicity at 70.5 h
1. COCCNc1nnc(-c2cnc(C)cn2)s1
2. CNS(=O)(=O)CC(=O)NC(C)Cc1ccccc1Br (centres undefined)
3. CN1CCCC1CNC(=O)CCCOc1ccc(F)cc1 (centres undefined)
4. O=C(CC1CC1)N1CCC2(CC1)CN(c1ncccn1)CCO2
5. Cc1ccc2c(n1)N(C)CCN(C(=O)C1CC1)C2
6. Cc1ccc2c(n1)N(Cc1ccncc1)CCN(S(C)(=O)=O)C2
7. Cc1ccc(F)c(S(=O)(=O)NCc2cccc(CS(C)(=O)=O)c2)c1

Completion:
1. -3.71
2. 3.97
3. 0.0711
4. -7.66
5. -8.52
6. -10
7. -18

###

Assay: Human HepG2 cell viability assay in 384 well format
Assay type: toxicity, cell-based
Design: dose 125 nL, time 70.5 hour; concentration not given beside the values
Settings: HepG2 cells, read-out: Inhibition
parameter: cytotoxicity at 70.5 h

Study these solved cases before continuing.
{"structure": "N#Cc1cccc(CN2C[C@H](NC(=O)C3CC3)[C@H]3OCCC[C@H]32)c1", "cytotoxicity at 70.5 h": "-14%"}
{"structure": "Cc1cc(CN2CCC(CNS(=O)(=O)c3ccc(C)s3)CC2)c(C)o1", "cytotoxicity at 70.5 h": "-5.87%"}
{"structure": "O=C(N1CCCC1)C12CC(CN1Cc1nccs1)C2", "cytotoxicity at 70.5 h": "-9.99%"}

Now for a further molecule.
Prompt: Tell me its cytotoxicity at 70.5 h given "CC(=O)N1CC[C@H]2OCC[C@@H](C(=O)N3CCCCO3)[C@@H]2C1" as the entry.
Completion: -20.9%

###

Experiment: Human HepG2 cell viability assay in 384 well format
Assay type: toxicity, cell-based
Parameters: dose 125 nL, time 70.5 hour; concentration not given beside the values
Settings: HepG2 cells, read-out: Inhibition
parameter: cytotoxicity at 70.5 h (%)
Answers are plain numbers, in %.

{"molecule": "O=C1COc2ccc(S(=O)(=O)NCCC3=CCCCC3)cc2N1", "value.units": "%", "cytotoxicity at 70.5 h": 0.831}

// each molecule listed below needs its cytotoxicity at 70.5 h
1. CC(C)C(=O)N1CCCC(c2cc(C(F)F)n3ncnc3n2)C1 (configuration not stated)
2. CN(C)[C@@H]1CN(Cc2ccco2)C[C@@H]2CCCO[C@@H]21
3. Cn1ccnc1CN1CCC2(CC(=O)N(c3cncnc3)C2)C1 (configuration not stated)

Completion:
23.9
-8.79
-14.3

###

Experiment: Human HepG2 cell viability assay in 384 well format
Assay type: toxicity, cell-based
Design: dose 125 nL, time 70.5 hour; concentration not given beside the values
Details: HepG2 cells, read-out: Inhibition
parameter: cytotoxicity at 70.5 h (%)
Numbers only, in %.

{"compound": "COc1ccnc(N2CCN(Cc3ncc(-c4ccccc4)o3)CC2)n1", "cytotoxicity at 70.5 h, %": 4.14}
{"compound": "CO[C@@H]1CN(c2ccccc2)S(=O)(=O)[C@@]12CCN(C)C2", "cytotoxicity at 70.5 h, %": -7.99}
{"compound": "Cc1c(F)cc(C(=O)NCC(F)(F)F)cc1NCC(=O)N(C)C", "cytotoxicity at 70.5 h, %": 10.3}

For each of the compounds below, state cytotoxicity at 70.5 h.
1. CCN1CCCC(NC(=O)CCn2c(C(F)F)cc3cccnc32)C1 (stereo not drawn)
2. CN(C)CCCNC(=O)C(c1cccc(F)c1)N(C)C (stereo not drawn)
3. Cc1noc(CCCC(=O)N2CSCC2C(=O)NCC2CC2)n1 (stereo not drawn)
4. CCN(CC)C(=O)CN(C)CCn1nc2ccccn2c1=O

Completion:
1. -4.62
2. -2.43
3. -7.96
4. -4.24

Okay, here is my list. What is cytotoxicity at 70.5 h for each of these?
1. COc1ccc(-c2nccn2CC(O)CN2CCCC2)c(F)c1 (stereo not drawn)
2. CNC(=O)c1cccc(CN2CCC(N(C)Cc3noc(C)n3)C2)c1 (stereo not drawn)
3. CC(C)(C)C(=O)N1C[C@H](c2ccsc2)[C@H]2CN(Cc3cccs3)CC[C@H]21
4. Cc1cc(C(=O)N2CCCC3(COCCN(c4ncccn4)C3)C2)[nH]n1 (stereo not drawn)
5. CCc1nnc(CN(C)Cc2nc(-c3ccccc3Cl)oc2C)o1
6. COCC(=O)N1CCC2(COCc3cnc(-c4ccccc4)nc32)C1 (stereo not drawn)
7. CCSc1ccccc1C(=O)NCC1CCN(Cc2ccsc2)CC1
8. CCC1CNCc2cc3c(C)ccc(C)c3nc2O1 (stereo not drawn)

Completion:
1. 28.4
2. -4.76
3. 0.661
4. -6.04
5. -3.53
6. -3.58
7. 2.8
8. -1.78

###

Kindly state cytotoxicity at 70.5 h for each of the entries shown.
Assay: Human HepG2 cell viability assay in 384 well format
Type: toxicity, cell-based
Parameters: dose 125 nL, time 70.5 hour; concentration not given beside the values
Conditions: HepG2 cells, read-out: Inhibition
Numbers only, in %.

{"molecule": "O=C(c1cncnc1)N1Cc2ccccc2OC2(CCOCC2)C1", "cytotoxicity at 70.5 h, %": 2.98}

State recorded cytotoxicity at 70.5 h for all listed molecules.
1. O=C(O)[C@@H]1CN(C(=O)c2ccc3[nH]nnc3c2)C[C@H]1c1ccccc1
2. Cc1nc(C)n(CC2CCCN(Cc3cccc4c3OCCO4)C2)n1 (stereo unspecified)
3. Cc1cc(=O)n(C)cc1NC(=O)Cc1cc(F)ccc1F
4. O=C(CC1CCCC1)N1C[C@@H]2CN(Cc3ccoc3)CCO[C@@H]2C1
5. O=C(NCCc1ccncc1)c1cccnc1OCC(F)(F)F
6. Cc1cc(CN2CCN(CC(O)c3ccc(Cl)cc3)CC2)no1 (stereo unspecified)
7. Cc1cn(-c2ccccc2)nc1NS(=O)(=O)c1cc(C(=O)O)ccc1Cl
8. COc1ccc(NC(=O)NC(C)(C)c2noc(C)n2)cc1

Completion:
1: -4.96; 2: 12; 3: 2.11; 4: -11.5; 5: -1.85; 6: -11.9; 7: -9.13; 8: 0.532

Please look at the items below and tell me cytotoxicity at 70.5 h for each one, in order.
1. CN(C)C[C@@H]1C[C@@H]2CN(c3ncc(F)cn3)CC[C@@H]2N1C
2. CN(Cc1ccsc1)C(=O)Nc1cccc(N2CCOC2=O)c1
3. COc1ccc(-c2n[nH]c(C)c2CC(=O)NCC2CCOCC2)cc1
4. Cc1ccc(S(=O)(=O)N2CSCC2C(=O)N(C)C2CC2)cc1Cl (stereo unspecified)
5. CC(O)CCN(C)S(=O)(=O)Cc1ccc(Br)cc1 (stereo unspecified)
6. CCc1ccc(CN2CCC3(CC2)C(=O)N(C)CCN3CC2CC2)cc1

Completion:
[-3.26, 26.8, -10.5, -12.2, 23.3, -13.9]

Give measured cytotoxicity at 70.5 h for every item shown.
1. Cn1cc(Cl)c(CN(Cc2ccsc2)CC2CCCO2)n1 (stereo unspecified)
2. CCC(=O)Nc1ccc2c(ccn2CC(=O)N(CC)CC)c1
3. CC(C)(CNC(=O)Nc1cccc(-c2cccs2)c1)C(N)=O
4. CC1=C(c2ccc(F)cc2)S(=O)(=O)N=C1N1CCc2ccccc21
5. CCN(CCCNc1ncnc2cc(F)c(F)cc12)S(C)(=O)=O
6. CN1CCC(N(C)C[C@H]2CC[C@@H](Cc3cccc(CO)c3)O2)CC1

Completion:
[-5.58, -3.74, 0.351, -4.74, -1.36, 5.66]

Required: cytotoxicity at 70.5 h, one value per molecule below.
1. COc1ccccc1C(C)CC(=O)N1CCN(S(N)(=O)=O)CC1 (stereo unspecified)
2. Cn1cc(S(=O)(=O)N2CCCC2CC(=O)c2cccs2)cn1 (stereo unspecified)
3. COc1ccc2cc(C(=O)N3CCCCC3CC(N)=O)[nH]c2c1 (stereo unspecified)
4. O=C(C1CC=CC1)N1C[C@@H](OCc2cccnc2)[C@H]2OCCC[C@H]21
5. CN(C)c1ccc(C(=O)N2CCN(CC(O)C(C)(C)C)CC2)nn1 (stereo unspecified)
6. Cn1cc(CC(CNC(=O)Nc2cccc(Cl)c2)C(N)=O)cn1 (stereo unspecified)

Completion:
-3.69
-9.81
-15.1
11.2
0.302
-6.01

Field: cytotoxicity at 70.5 h. Fill in for each record below.
1. O=C(O)CNC(=O)Cc1csc(-c2ccccc2F)n1
2. CN(C)C(=O)N1CCc2onc(C(=O)Nc3cccnc3)c2C1
3. O=c1[nH]nc2c(S(=O)(=O)N3CCCC3)cccn12
4. COCCNC(=O)c1ccc2c(=O)n3c(nc2c1)CCCCCC3

Completion:
18.6
-19.2
-4.02
7.92
